# Measured On: EGFR (epidermal growth factor receptor) on cells (human, UniProt P00533 25-1210)
# Test: cell-based or functional assay
Readout Kind: IC50, inhibition of EGF-stimulated EGFR phosphorylation (Tyr1173) in NCI-H292 (nM)
Numbers only, in nM.

# binder ECB38 (designed binder) MLPAPKNLVVSEVTEDSARLSWDDPWAFYESFLIQYQESEKVGEAIVLTVPGSERSYDLTGLKPGTEYTVSIYGVHNVYKDTNMRGLPLSAIFTTAPAPAPAPAPLPAPKNLVVSRVTEDSARLSWTAPDAAFDSFWIRYFEFLGSGEAIVLTVPGSERSYDLTGLKPGTEYVVNIMGVKGGKISPPLSAIFTTAPAPAPAPAPLAEAKVLANRELDKYGVSDYYKNLINNAKTVEGVKALLDEILAALP ; its IC50, inhibition of EGF-stimulated EGFR phosphorylation (Tyr1173) in NCI-H292 = 2.3

The reported measurements were obtained from patent US20150104808A1.
